- experiment.notes: pharmacokinetic studies in rats
- experimental.parameters: male, Sprague-Dawley, rat, in vivo, po, 10 micromole/kg
Each record here notes measured bioavailability.

molecule: CCCCn1/c(=N/C(=O)c2cc(C(F)(F)F)ccc2OCC(C)(C)O)cc(C(C)(C)C)n1C
bioavailability [%]: 61

molecule: Cn1c(C(C)(C)C)c/c(=N\C(=O)c2cc(C(F)(F)F)ccc2OCCC(C)(C)O)n1CC1CC1
bioavailability [%]: 52

molecule: CC(C)Cn1/c(=N/C(=O)c2cccc(C(F)(F)F)c2F)cc(C(C)(C)C)n1C [C, reference compound]
bioavailability [%]: 45

###

Each record here notes measured Ki.
- study.system: rat CB2 (Rattus norvegicus, UniProt Q9QZN9)
- Sequence (Q9QZN9 whole entry): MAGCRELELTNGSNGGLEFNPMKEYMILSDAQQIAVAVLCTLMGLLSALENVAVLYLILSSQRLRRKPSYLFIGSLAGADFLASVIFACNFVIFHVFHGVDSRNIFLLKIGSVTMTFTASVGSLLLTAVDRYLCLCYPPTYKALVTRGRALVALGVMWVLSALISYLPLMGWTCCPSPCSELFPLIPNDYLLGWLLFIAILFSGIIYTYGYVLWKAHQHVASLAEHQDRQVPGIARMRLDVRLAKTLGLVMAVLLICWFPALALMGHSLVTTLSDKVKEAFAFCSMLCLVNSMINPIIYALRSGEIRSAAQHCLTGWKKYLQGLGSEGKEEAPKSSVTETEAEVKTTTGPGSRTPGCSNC
- experiment.notes: rat CB2 radioligand binding assay ([3H]CP 55,940 competition)
- Set-up: expressed in transfected cells; host or cells: HEK293
- experimental.parameters: rat CB2 (Ki, nM), HEK293 membranes, 0.5 nM [3H]CP 55,940
- Method: The CB1 and CB2 radioligand binding assays described herein are utilized to ascertain the affinity of compounds of the present application for binding to CB2 relative to CB1 receptors. HEK293 cells stably expressing rat CB2 receptors were grown until a confluent monolayer was formed. […] The bound activity was counted in a TopCount using Microscint-20. […]

compound: C[C@H](c1ccccc1)N1C[C@@H](COc2ccc(C(F)(F)F)cc2C(=O)/N=c2\cc(C(C)(C)C)n(C)n2C[C@H]2CCCO2)OC1=O [Example 44]
study.system: rat CB2 (Rattus norvegicus, UniProt Q9QZN9)
result.units: nM
Ki: 408

compound: CN1CCC[C@H]1COc1ccc(C(F)(F)F)cc1C(=O)/N=c1\oc(C(C)(C)C)cn1C[C@H]1CCCO1 [Example 32]
study.system: rat CB2 (Rattus norvegicus, UniProt Q9QZN9)
result.units: nM
Ki: 75

compound: Cn1c(C(C)(C)C)c/c(=N\C(=O)c2cc(C(F)(F)F)ccc2OC[C@@H]2CCCO2)n1CC1CC1 [Example 27]
study.system: rat CB2 (Rattus norvegicus, UniProt Q9QZN9)
result.units: nM
Ki: 9.4

compound: Cn1c(C(C)(C)C)c/c(=N\C(=O)c2cc(C(F)(F)F)ccc2OC[C@@H](O)C(C)(C)C)n1C[C@H]1CCCO1 [Example 112]
study.system: rat CB2 (Rattus norvegicus, UniProt Q9QZN9)
result.units: nM
Ki: 1.9

compound: CN1CCC[C@H]1COc1ccc(C(F)(F)F)cc1C(=O)/N=c1\oc(C(C)(C)C)cn1CC1CCC1 [Example 75]
study.system: rat CB2 (Rattus norvegicus, UniProt Q9QZN9)
result.units: nM
Ki: 44

compound: Cn1c(C(C)(C)C)c/c(=N\C(=O)c2cc(C(F)(F)F)ccc2OC[C@@H]2CCC(=O)N2)n1CC1CCC1 [Example 120]
study.system: rat CB2 (Rattus norvegicus, UniProt Q9QZN9)
result.units: nM
Ki: 61

compound: CC(C)c1c/c(=N\C(=O)c2cc(C(F)(F)F)ccc2OCC(C)(C)O)n(CC2CCCC2)n1C [Example 114]
study.system: rat CB2 (Rattus norvegicus, UniProt Q9QZN9)
result.units: nM
Ki: 35
